# experimentalTarget: Protein farnesyltransferase subunit beta (Homo sapiens) (UniProt P49356)
# Sequence (P49356 whole entry): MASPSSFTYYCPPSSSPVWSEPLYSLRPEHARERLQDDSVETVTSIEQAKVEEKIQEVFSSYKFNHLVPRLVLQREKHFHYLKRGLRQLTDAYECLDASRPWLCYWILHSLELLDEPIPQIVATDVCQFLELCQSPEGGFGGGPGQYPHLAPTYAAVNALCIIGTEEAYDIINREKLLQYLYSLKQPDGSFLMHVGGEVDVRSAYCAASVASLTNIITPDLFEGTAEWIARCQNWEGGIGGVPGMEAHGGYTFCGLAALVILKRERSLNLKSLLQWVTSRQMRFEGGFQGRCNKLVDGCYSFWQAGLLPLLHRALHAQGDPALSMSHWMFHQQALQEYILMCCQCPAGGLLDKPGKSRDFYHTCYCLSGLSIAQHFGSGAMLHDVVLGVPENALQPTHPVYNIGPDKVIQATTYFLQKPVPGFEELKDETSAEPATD
# testProtocol: Activity at FTase assessed as formation of farnesylated peptide after 60 mins by HPLC
Activity calls are given as the source filed them. The rule behind the calls is not given here. Peptide text beside a SMILES is read from it. * marks the point of attachment. Dansyl = CN(C)c1cccc2c(S(=O)(=O)*)cccc12
# valid calls are active, inactive; nothing else

Completed entries (count: 8):
molecule	experimentalTarget	assignedLabel
CC(C)C[C@H](NC(=O)[C@H](CC(N)=O)NC(=O)[C@H](CCC(N)=O)NC(=O)[C@H](CS)NC(=O)CNS(=O)(=O)c1cccc2c(N(C)C)cccc12)C(=O)O (Dansyl-GCQNL-OH)	Protein farnesyltransferase subunit beta (Homo sapiens) (UniProt P49356)	inactive
CC(C)C[C@H](NC(=O)[C@H](C)NC(=O)[C@H](Cc1cnc[nH]1)NC(=O)[C@H](CS)NC(=O)CNS(=O)(=O)c1cccc2c(N(C)C)cccc12)C(=O)O (Dansyl-GCHAL-OH)	Protein farnesyltransferase subunit beta (Homo sapiens) (UniProt P49356)	inactive
CC(C)C[C@H](NC(=O)[C@H](CCCCN)NC(=O)[C@H](CCC(=O)O)NC(=O)[C@H](CS)NC(=O)CNS(=O)(=O)c1cccc2c(N(C)C)cccc12)C(=O)O (Dansyl-GCEKL-OH)	Protein farnesyltransferase subunit beta (Homo sapiens) (UniProt P49356)	inactive
CC(C)C[C@H](NC(=O)CNC(=O)CNC(=O)[C@H](CS)NC(=O)CNS(=O)(=O)c1cccc2c(N(C)C)cccc12)C(=O)O (Dansyl-GCGGL-OH)	Protein farnesyltransferase subunit beta (Homo sapiens) (UniProt P49356)	inactive
CC[C@H](C)[C@H](NC(=O)[C@H](CO)NC(=O)[C@H](CS)NC(=O)CNS(=O)(=O)c1cccc2c(N(C)C)cccc12)C(=O)N[C@@H](CC(C)C)C(=O)O (Dansyl-GCSIL-OH)	Protein farnesyltransferase subunit beta (Homo sapiens) (UniProt P49356)	active
CC(C)C[C@H](NC(=O)[C@H](C)NC(=O)[C@@H](NC(=O)[C@H](CS)NC(=O)CNS(=O)(=O)c1cccc2c(N(C)C)cccc12)[C@@H](C)O)C(=O)O (Dansyl-GCTAL-OH)	Protein farnesyltransferase subunit beta (Homo sapiens) (UniProt P49356)	inactive
CC(C)C[C@H](NC(=O)[C@H](Cc1ccc(O)cc1)NC(=O)[C@H](C)NC(=O)[C@H](CS)NC(=O)CNS(=O)(=O)c1cccc2c(N(C)C)cccc12)C(=O)O (Dansyl-GCAYL-OH)	Protein farnesyltransferase subunit beta (Homo sapiens) (UniProt P49356)	inactive
CC(C)C[C@H](NC(=O)CNC(=O)[C@H](CC(C)C)NC(=O)[C@H](CS)NC(=O)CNS(=O)(=O)c1cccc2c(N(C)C)cccc12)C(=O)O (Dansyl-GCLGL-OH)	Protein farnesyltransferase subunit beta (Homo sapiens) (UniProt P49356)	inactive

Req: Hi, do you know how CC[C@H](C)[C@H](NC(=O)[C@H](CC(C)C)NC(=O)[C@H](CS)NC(=O)CNS(=O)(=O)c1cccc2c(N(C)C)cccc12)C(=O)N[C@@H](CC(C)C)C(=O)O (Dansyl-GCLIL-OH) came out in this test?
Resp: active

* * *

# experimentalTarget: Protein farnesyltransferase subunit beta (Homo sapiens) (UniProt P49356)
# testProtocol: Activity at FTase assessed as formation of farnesylated peptide after 60 mins by HPLC
Active and inactive are the calls of the source. The rule behind the calls is not given here. Peptide text beside a SMILES is read from it. * marks the point of attachment. Dansyl = CN(C)c1cccc2c(S(=O)(=O)*)cccc12
property: Activity

Below, each entry is followed by its recorded Activity result.
compound	Activity
CC[C@H](C)[C@H](NC(=O)[C@H](CS)NC(=O)[C@H](CS)NC(=O)CNS(=O)(=O)c1cccc2c(N(C)C)cccc12)C(=O)N[C@@H](CC(C)C)C(=O)O (Dansyl-GCCIL-OH)	Active
CC(C)C[C@H](NC(=O)[C@@H]1CCCN1C(=O)[C@H](Cc1cnc[nH]1)NC(=O)[C@H](CS)NC(=O)CNS(=O)(=O)c1cccc2c(N(C)C)cccc12)C(=O)O (Dansyl-GCHPL-OH)	inactive
CC[C@H](C)[C@H](NC(=O)[C@H](CS)NC(=O)CNS(=O)(=O)c1cccc2c(N(C)C)cccc12)C(=O)N[C@@H](CC(C)C)C(=O)N[C@@H](CC(C)C)C(=O)O (Dansyl-GCILL-OH)	Active
CSCC[C@H](NC(=O)[C@H](CS)NC(=O)CNS(=O)(=O)c1cccc2c(N(C)C)cccc12)C(=O)N[C@@H](CCC(=O)O)C(=O)N[C@@H](CC(C)C)C(=O)O (Dansyl-GCMEL-OH)	inactive
CC(C)C[C@H](NC(=O)[C@H](CCC(N)=O)NC(=O)CNC(=O)[C@H](CS)NC(=O)CNS(=O)(=O)c1cccc2c(N(C)C)cccc12)C(=O)O (Dansyl-GCGQL-OH)	inactive

Req: Any idea what its Activity is? The compound is CC(C)C[C@H](NC(=O)[C@H](CC(C)C)NC(=O)[C@H](CCC(N)=O)NC(=O)[C@H](CS)NC(=O)CNS(=O)(=O)c1cccc2c(N(C)C)cccc12)C(=O)O (Dansyl-GCQLL-OH)
Resp: < 25%

Req: Same thing, different compound: CC[C@H](C)[C@H](NC(=O)[C@H](CS)NC(=O)CNS(=O)(=O)c1cccc2c(N(C)C)cccc12)C(=O)N[C@H](C(=O)N[C@@H](CC(C)C)C(=O)O)[C@@H](C)CC (Dansyl-GCIIL-OH)
Resp: Active

Req: Same thing, different compound: CC[C@H](C)[C@H](NC(=O)[C@@H](NC(=O)[C@H](CS)NC(=O)CNS(=O)(=O)c1cccc2c(N(C)C)cccc12)C(C)C)C(=O)N[C@@H](CC(C)C)C(=O)O (Dansyl-GCVIL-OH)
Resp: Active

Req: Same thing, different compound: CC(C)C[C@H](NC(=O)[C@H](CC(C)C)NC(=O)[C@H](CO)NC(=O)[C@H](CS)NC(=O)CNS(=O)(=O)c1cccc2c(N(C)C)cccc12)C(=O)O (Dansyl-GCSLL-OH)
Resp: < 25%

Req: Same thing, different compound: CC(C)C[C@H](NC(=O)CNC(=O)[C@@H](NC(=O)[C@H](CS)NC(=O)CNS(=O)(=O)c1cccc2c(N(C)C)cccc12)C(C)C)C(=O)O (Dansyl-GCVGL-OH)
Resp: inactive

Source of measurements: ChEMBL document CHEMBL1153232
